Tested on: NCI-H522
test: NCI tumour cell line growth inhibition, 48 h
Calls of active or inactive are those of the source. No stated cut-off is given here; in the data, active = GI50 up to about 1.1 µM and inactive = higher.
Outcome codes: class 1 for active, class 0 for inactive

>>> print(df.to_string())
                                   compound  assigned_label
0  Cc1cc(NS(=O)(=O)c2ccc(Nc3c4ccccc4nc4c(C(=O)NCCN(C)C)cccc34)cc2)no1         class 1
1  COc1cc([C@@H]2c3cc4c(cc3[C@@H](Nc3ccc(Cl)cc3C(=O)c3ccccc3Cl)[C@H]3COC(=O)[C@H]23)OCO4)cc(OC)c1OC         class 1
2  [N-]=[N+]=CC(=O)CCC(NC(=O)C(CCC(=O)C=[N+]=[N-])NC(=O)CCC(N)C(=O)O)C(=O)O (stereo not drawn)         class 0
3                      C=C(Br)CN(C)CC(=C)Br         class 0
4   CSCCC(NC(=O)OCc1ccccc1)NC(=O)OCc1ccccc1         class 0
5  CC(C)C1CCC/C=C/C=C/C=C/C=C/C(OC2OC(C)C(O)C(N)C2O)CC2OC(O)(CC(O)CC(O)C(O)CCC(=O)O1)CC(O)C2C(=O)O (stereo not drawn)         class 0
6  O=C(Nc1ccccc1SC(/C=C/NNC1=NN=C(c2ccccc2)C(c2ccccc2)N1)c1ccccc1)c1ccc(Cl)cc1Cl (stereo not drawn)         class 0
7  O=C1NC2C(=CC(O)C(O)C2O)c2cc3c(cc21)OCO3 (stereo not drawn)         class 1

====

Tested on: M14
test: NCI tumour cell line growth inhibition, 48 h
Calls of active or inactive are those of the source. Cut-off read from the data, not from the text of the source: active = GI50 up to about 1.1 µM and inactive = higher.
Possible outcomes: active, inactive

compound	tested-target	assigned-label
CCN(CC)CCNc1ccc(C)c2sc3ccc(O)cc3c(=O)c12	M14	inactive
COc1cccc(/C=C/C(=O)c2sc(C(N)=S)nc2C)c1O	M14	inactive
COc1ccc2cc(CNCCCCCCNCc3ccc4cc(OC)ccc4c3)ccc2c1	M14	active
Nc1n[nH]c2c(C(=O)Nc3ccc(Cl)cc3)c(N)n(N)c(=O)c12	M14	inactive
COC(=O)C1(F)C(=O)NC(=O)NC1O (centres undefined)	M14	inactive
O=C(OCC12CC3CC(CC(C3)C1)C2)c1ccc(NCc2cc(O)ccc2O)cc1	M14	inactive
COC(=O)c1ccc2n[se]nc2c1	M14	inactive
CCN(N=O)C1C2(CCCC2)NC(=O)C12CCCC2 (centres undefined)	M14	inactive
Cc1ccc2c(C)c3ccc4ccccc4c3c[n+]2c1.[O-][Cl+3]([O-])([O-])[O-]	M14	inactive
COc1cc(C[C@H]2C(=O)OC[C@@H]2Cc2ccc(OC)c(OC)c2)cc(OC)c1	M14	inactive
CC(=O)C(=[N+]=[N-])C(=O)OCCOC(=O)C(=[N+]=[N-])C(C)=O	M14	active
CC(=O)N(C)SCC(NC(=O)C(Cc1ccccc1)NC(=O)OCc1ccccc1)C(=O)NC(Cc1ccccc1)C(=O)NC(Cc1cn(C=O)c2ccccc12)C(=O)NC(CCCCNC(=O)OCc1ccccc1)C(=O)NC(C(=O)NC(CSN(C)C(C)=O)C(=O)NO)C(C)OCc1ccccc1 (centres undefined)	M14	inactive
COc1cc(C=C2C(C)=NN(c3cccc(Cl)c3)C23C(Cl)C(=O)N3c2nc3ccccc3s2)ccc1O (centres undefined)	M14	inactive
CC(=O)Nc1ccc(S(=O)(=O)N=S(C)C)cc1	M14	inactive
N#CC(C#N)=C1C(C#N)=C(N)NC12OCCO2	M14	inactive
BC(=O)NC(CC(C)C)C(=O)NC1c2ccsc2C(=O)C1O.CN(C)C (centres undefined)	M14	inactive
CC1=C(C(=O)Nc2ccccc2C)C(c2ccc(Cl)c(Cl)c2)C(C(=O)Nc2ccccc2C)=C(C)N1	M14	inactive
COC(=O)C1=C(C)N(NC(=O)Nc2ccccc2)C2(N)N(NC(=O)Nc3ccccc3)C(C)=C(C(=O)OC)C12C(=O)OC (centres undefined)	M14	inactive
O=C(O)c1ccccc1/N=N/c1ccc2oc(=O)c(C(=O)Nc3ccccc3)cc2c1	M14	inactive
